Target: Beta-secretase 1 (Homo sapiens)
Experiment: Inhibition of Beta-secretase 1 at 2 uM concentration
measure-name: inhibition (%)
The answer is to be given in %; state only the numeric part.

## Input Sample CC(C)C[C@H](NC(=O)[C@@H](NC(=O)[C@@H](N)CCC(=O)O)C(C)C)C(=O)N[C@@H](Cc1ccccc1)[C@@H](O)C(=O)O (mixture of isomers) — what was its inhibition?
## Output 34

----------
Biological target: Beta-secretase 1 (Homo sapiens, UniProt P56817)
Sequence (P56817 whole entry): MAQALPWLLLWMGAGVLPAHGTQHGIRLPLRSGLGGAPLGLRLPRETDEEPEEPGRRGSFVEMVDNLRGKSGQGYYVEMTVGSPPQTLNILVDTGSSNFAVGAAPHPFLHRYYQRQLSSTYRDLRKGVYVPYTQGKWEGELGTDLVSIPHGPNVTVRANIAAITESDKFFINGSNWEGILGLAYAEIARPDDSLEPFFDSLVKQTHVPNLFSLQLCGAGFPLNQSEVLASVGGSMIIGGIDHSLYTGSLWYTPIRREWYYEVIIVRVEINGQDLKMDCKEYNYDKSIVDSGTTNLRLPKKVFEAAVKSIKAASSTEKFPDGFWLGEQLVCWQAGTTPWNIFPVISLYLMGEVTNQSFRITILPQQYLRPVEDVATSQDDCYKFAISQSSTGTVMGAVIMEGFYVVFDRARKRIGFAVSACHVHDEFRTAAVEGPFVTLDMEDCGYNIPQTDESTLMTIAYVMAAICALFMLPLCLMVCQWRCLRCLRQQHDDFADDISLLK
Test: Inhibition of Beta-secretase 1 at 2 uM concentration
*1 amine or outer side, *2 acyl side, *3 side chain or, on linkers, in order; H or OH if unused. Where a SMILES comes first, the peptide text is derived from it. [ ]: non-standard residue; d: D form. β3hPhe(2R-OH) = O=C([C@H](O)[C@H](Cc1ccccc1)N[*:1])[*:2]; Dap = NC[C@H](N)C(=O)O; CO = O=C([*:1])[*:2]
measure-name: inhibition

## Input Any idea what its inhibition is? The compound is CC(C)C[C@H](NC(=O)[C@@H](NC(=O)[C@@H](N)CNC(=O)O)C(C)C)C(=O)N[C@@H](Cc1ccccc1)[C@@H](O)C(=O)N[C@@H](CC(=O)O)C(=O)N[C@@H](C)C(=O)N[C@@H](CCC(=O)O)C(=O)O (H-[Dap](CO)VL[β3hPhe(2R-OH)]DAE-OH)
## Output > 90%

## Input Here is the next compound: CC(C)C[C@H](NC(=O)[C@@H](NC(=O)[C@@H](N)CCC(=O)O)C(C)C)C(=O)N[C@@H](Cc1ccccc1)[C@@H](O)C(=O)NCC(=O)N[C@@H](C)C(=O)N[C@@H](CCC(=O)O)C(=O)N[C@@H](Cc1ccccc1)C(=O)O (HELM PEPTIDE1{E.V.L.[O=C([C@H](O)[C@H](Cc1ccccc1)N[*:1])[*:2]].G.A.E.F}$$$$V2.0)
## Output 54%

## Input // query: CC(C)C[C@H](NC(=O)[C@@H](NC(=O)[C@@H](N)CCC(=O)O)C(C)C)C(=O)N[C@@H](Cc1ccccc1)[C@@H](O)C(=O)Nc1cc(C(=O)O)cc(C(=O)O)c1
## Output > 90%

## Input Thanks! And CC(C)C[C@H](NC(=O)[C@@H](NC(=O)[C@@H](N)CCC(=O)O)C(C)C)C(=O)N[C@@H](Cc1ccccc1)[C@@H](O)C(=O)N[C@@H](CC(=O)O)C(=O)O (HELM PEPTIDE1{E.V.L.[O=C([C@H](O)[C@H](Cc1ccccc1)N[*:1])[*:2]].D}$$$$V2.0) ?
## Output 61%
